testedOn: human PTP1B (Homo sapiens)
Construct: human PTP1B (amino acid residues 1-321); made in house; host or cells: E. coli BL21(DE3)
Sequence (P18031 1-321): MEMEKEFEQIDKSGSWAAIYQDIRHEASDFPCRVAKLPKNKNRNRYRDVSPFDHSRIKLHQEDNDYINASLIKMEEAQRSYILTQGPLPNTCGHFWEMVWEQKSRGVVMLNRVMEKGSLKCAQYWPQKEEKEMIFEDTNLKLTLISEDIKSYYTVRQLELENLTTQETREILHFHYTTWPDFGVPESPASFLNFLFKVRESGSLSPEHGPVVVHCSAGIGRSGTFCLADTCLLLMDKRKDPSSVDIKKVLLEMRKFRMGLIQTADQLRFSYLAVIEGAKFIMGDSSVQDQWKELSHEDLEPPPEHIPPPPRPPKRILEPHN
experimentDescription: PTP1B assay, pNPP hydrolysis, assayed exactly as for PTP1
Format: biochemical
testParameters: Conc 1 uM, Table 2, read-out: PTP1B Inhib PTP1B. % Inhib
Field: inhibition at 1 µM. Provide a value for each of the compounds that follow.

## Input Identify measured inhibition at 1 µM corresponding to CCCCCNC(=O)C(Cc1ccc(OC(COO)COO)cc1)NC(=O)N(Cc1ccccc1)Cc1ccccc1 (centres unmarked)
## Output 18%

## Input Identify measured inhibition at 1 µM corresponding to CCCCCNC(=O)C(Cc1ccc(OCCOO)c(COO)c1)NC(=O)C(Cc1ccccc1)NC(=O)Cc1ccc(C)cc1 (centres unmarked)
## Output 39%

## Input Identify measured inhibition at 1 µM corresponding to CCCCCNC(=O)C(Cc1ccc(OC(COO)COO)cc1)NC(=O)N(Cc1cccc(C(=O)O)c1)Cc1cccc(C(F)(F)F)c1 (centres unmarked)
## Output 3%

## Input Identify measured inhibition at 1 µM corresponding to CCCCCNC(=O)C(Cc1ccc(OCCOO)c(COO)c1)NC(=O)C(Cc1ccccc1)NC(=O)Cc1c[nH]c2ccccc12 (centres unmarked)
## Output 47%

## Input Identify measured inhibition at 1 µM corresponding to CCCCCNC(=O)[C@H](Cc1ccc(OCC(=O)O)c(C(=O)O)c1)NC(=O)C(Cc1ccccc1)NC(=O)Cn1nnnc1S (some centres unmarked)
## Output 57%

## Input Identify measured inhibition at 1 µM corresponding to CCCCCNC(=O)C(Cc1ccc(OC(COO)COO)cc1)NC(=O)C(CCc1ccccc1)NC(=O)OC(C)(C)C (centres unmarked)
## Output 2%

## Input Identify measured inhibition at 1 µM corresponding to CCCCCNC(=O)[C@H](Cc1ccc(OCC(=O)OC)c(C(=O)O)c1)NC(=O)[C@H](Cc1ccccc1)NC(=O)OC(C)(C)C
## Output 3%

## Input Identify measured inhibition at 1 µM corresponding to CCCCCNC(=O)C(Cc1ccc(OC(COO)COO)cc1)NC(=O)C(Cc1ccccc1)NC(=O)CCC(=O)O (centres unmarked)
## Output 45%

Just for reference, patent US6410585B1 is where these values come from.
